# setupConditions: siRNA; also: test system not given here
HELM strings list units from the 5' end as sugar, base in round brackets, then linkage (d deoxyribose, r ribose, m 2'-O-methyl, p phosphodiester). Strings are as the collection lists them, not checked against the first reports. ss, as = sense and antisense strand; [lna] = locked nucleic acid (LNA); [hna] = hexitol nucleic acid; [fl2r] = 2'-fluoro
Assignment: determine reported target mRNA knockdown for the given substances.
State the result as a value with its unit after it.

Batch request: target mRNA knockdown per item, same order as input.
1. RNA1{r(G)p.r(A)p.m(C)p.r(A)p.r(A)p.r(G)p.r(G)p.r(G)p.r(A)p.r(A)p.r(G)p.r(G)p.r(U)p.m(U)p.r(A)p.r(G)p.r(C)p.r(C)p.r(U)p.r(T)p.r(T)}|RNA2{r(A)p.r(G)p.r(G)p.r(C)p.m(U)p.r(A)p.r(A)p.r(C)p.r(C)p.r(U)p.r(U)p.r(C)p.r(C)p.r(C)p.r(U)p.m(U)p.r(G)p.r(U)p.r(C)p.r(T)p.r(T)}$$$RNA1{StrandType:ss}|RNA2{StrandType:as}$
2. RNA1{m(A)p.r(G)p.m(U)p.r(U)p.m(A)p.r(A)p.m(C)p.r(C)p.m(C)p.r(G)p.m(G)p.r(G)p.m(A)p.r(C)p.m(U)p.r(U)p.m(G)p.r(G)p.m(A)p.r(T)p.r(T)}|RNA2{r(U)p.r(C)p.r(C)p.r(A)p.r(A)p.m(G)p.r(U)p.r(C)p.r(C)p.r(C)p.m(G)p.m(G)p.m(G)p.r(U)p.r(U)p.r(A)p.r(A)p.r(C)p.r(U)p.r(T)p.r(T)}$$$RNA1{StrandType:ss}|RNA2{StrandType:as}$
3. RNA1{[fl2r](U)p.r(C)p.[fl2r](C)p.r(U)p.[fl2r](C)p.r(G)p.[fl2r](U)p.r(C)p.[fl2r](G)p.r(U)p.[fl2r](C)p.r(U)p.[fl2r](G)p.r(U)p.[fl2r](U)p.r(C)p.[fl2r](U)p.r(A)p.[fl2r](A)p.r(T)p.r(T)}|RNA2{r(U)p.r(U)p.r(A)p.r(G)p.r(A)p.r(A)p.[fl2r](C)p.r(A)p.r(G)p.r(A)p.[fl2r](C)p.r(G)p.r(A)p.[fl2r](C)p.r(G)p.r(A)p.r(G)p.r(G)p.r(A)p.r(T)p.r(T)}$$$RNA1{StrandType:ss}|RNA2{StrandType:as}$

1: 68%; 2: 45%; 3: 49%

Batch request: target mRNA knockdown per item, same order as input.
1. RNA1{r(G)p.r(A)p.r(C)p.r(G)p.[hna](U)p.r(A)p.r(A)p.[hna](A)p.r(C)p.r(G)p.[hna](G)p.r(C)p.r(C)p.[hna](A)p.r(C)p.r(A)p.r(A)p.r(G)p.[hna](U)p.[hna](U)p.d(T)}|RNA2{r(A)p.[hna](C)p.r(U)p.r(U)p.r(G)p.r(U)p.r(G)p.r(G)p.r(C)p.r(C)p.r(G)p.r(U)p.r(U)p.r(U)p.r(A)p.r(C)p.r(G)p.[hna](U)p.[hna](C)p.[hna](G)p.d(T)}$$$RNA1{StrandType:ss}|RNA2{StrandType:as}$
2. RNA1{r(G)p.r(A)p.r(A)p.r(A)p.r(A)p.r(C)p.r(G)p.r(C)p.r(U)p.r(U)p.r(G)p.r(U)p.r(A)p.r(A)p.r(A)p.r(G)p.r(C)p.r(C)p.r(G)p.r(T)p.r(T)}|RNA2{r(C)p.r(G)p.r(G)p.r(C)p.r(U)p.r(U)p.m(U)p.r(A)p.r(C)p.r(A)p.r(A)p.r(G)p.r(C)p.r(G)p.r(U)p.r(U)p.r(U)p.r(U)p.r(C)p.r(T)p.r(T)}$$$RNA1{StrandType:ss}|RNA2{StrandType:as}$
3. RNA1{r(A)p.r(A)p.r(A)p.r(C)p.r(C)p.r(C)p.r(C)p.m(U)p.r(A)p.r(G)p.r(A)p.r(G)p.r(G)p.r(G)p.r(C)p.r(A)p.r(A)p.r(G)p.r(U)p.r(T)p.r(T)}|RNA2{r(A)p.r(C)p.r(U)p.r(U)p.r(G)p.r(C)p.r(C)p.r(C)p.r(U)p.r(C)p.m(U)p.r(A)p.r(G)p.r(G)p.r(G)p.r(G)p.r(U)p.r(U)p.r(U)p.r(T)p.r(T)}$$$RNA1{StrandType:ss}|RNA2{StrandType:as}$
4. RNA1{r(G)p.[hna](A)p.r(C)p.r(G)p.r(U)p.r(A)p.r(A)p.[hna](A)p.r(C)p.r(G)p.r(G)p.r(C)p.r(C)p.[hna](A)p.r(C)p.r(A)p.[hna](A)p.r(G)p.r(U)p.r(U)p.r(C)}|RNA2{r(A)p.r(C)p.r(U)p.r(U)p.r(G)p.r(U)p.r(G)p.r(G)p.r(C)p.r(C)p.r(G)p.r(U)p.r(U)p.r(U)p.r(A)p.r(C)p.r(G)p.r(U)p.[lna](C)p.[lna](G)p.r(C)}$$$RNA1{StrandType:ss}|RNA2{StrandType:as}$
5. RNA1{r(G)p.r(G)p.m(U)p.r(A)p.r(G)p.r(G)p.r(G)p.r(U)p.m(U)p.r(G)p.r(A)p.r(A)p.r(G)p.r(A)p.r(G)p.r(A)p.r(C)p.r(U)p.r(U)p.r(T)p.r(T)}|RNA2{r(A)p.r(A)p.r(G)p.r(U)p.r(C)p.r(U)p.r(C)p.r(U)p.r(U)p.m(C)p.r(A)p.r(A)p.r(C)p.r(C)p.r(C)p.m(U)p.r(A)p.r(C)p.r(C)p.r(T)p.r(T)}$$$RNA1{StrandType:ss}|RNA2{StrandType:as}$
6. RNA1{m(A)p.r(C)p.m(G)p.r(U)p.m(C)p.r(A)p.m(C)p.r(C)p.m(G)p.r(A)p.m(G)p.r(G)p.m(A)p.r(G)p.m(A)p.r(A)p.m(G)p.r(U)p.m(A)p.r(T)p.r(T)}|RNA2{r(U)p.r(A)p.r(C)p.r(U)p.r(U)p.r(C)p.r(U)p.r(C)p.r(C)p.r(U)p.r(C)p.r(G)p.r(G)p.r(U)p.r(G)p.r(A)p.r(C)p.r(G)p.r(U)p.r(T)p.r(T)}$$$RNA1{StrandType:ss}|RNA2{StrandType:as}$

1: 23.2%; 2: 56%; 3: 75%; 4: 79.1%; 5: 94%; 6: 36%
